assayed.system: PROBABLE TRANSMEMBRANE CARBONIC ANHYDRASE (CARBONATE DEHYDRATASE) (CARBONIC DEHYDRATASE) (Mycobacterium tuberculosis)
Sequence (P96878 whole entry): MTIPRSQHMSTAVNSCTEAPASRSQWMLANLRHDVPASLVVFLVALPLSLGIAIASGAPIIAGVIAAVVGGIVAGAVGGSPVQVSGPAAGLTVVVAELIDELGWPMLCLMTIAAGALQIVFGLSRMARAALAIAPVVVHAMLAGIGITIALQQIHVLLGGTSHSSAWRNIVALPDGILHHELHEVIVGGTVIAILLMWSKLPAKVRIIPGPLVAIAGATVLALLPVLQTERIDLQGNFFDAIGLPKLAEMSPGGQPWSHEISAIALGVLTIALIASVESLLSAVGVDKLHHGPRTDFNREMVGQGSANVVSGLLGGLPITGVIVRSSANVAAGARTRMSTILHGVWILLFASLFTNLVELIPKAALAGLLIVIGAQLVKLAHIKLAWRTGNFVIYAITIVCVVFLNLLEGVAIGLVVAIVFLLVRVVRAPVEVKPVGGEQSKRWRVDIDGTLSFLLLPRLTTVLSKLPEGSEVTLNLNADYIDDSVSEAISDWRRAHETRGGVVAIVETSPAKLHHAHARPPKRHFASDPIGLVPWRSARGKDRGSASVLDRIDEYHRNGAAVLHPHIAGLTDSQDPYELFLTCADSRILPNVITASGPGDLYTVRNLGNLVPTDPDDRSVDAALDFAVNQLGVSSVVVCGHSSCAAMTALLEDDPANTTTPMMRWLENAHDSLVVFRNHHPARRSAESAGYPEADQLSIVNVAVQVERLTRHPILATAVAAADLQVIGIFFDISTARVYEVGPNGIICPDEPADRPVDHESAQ
Please go through the items and note down their Ki.
Please state the value followed by its unit.

Previously resolved entries follow.
CN(CS(=O)(=O)O)c1ccc(/N=N/c2cccc(S(N)(=O)=O)c2)cc1 :: 7.4 µM
CN(CS(=O)(=O)O)c1ccccc1 :: 9.11 µM
Nc1ccc(/N=N/c2cccc(S(N)(=O)=O)c2)cc1 :: 8.68 µM
CCN[C@H]1CN(CCCOC)S(=O)(=O)c2sc(S(N)(=O)=O)cc21 [BRINZOLAMIDE] :: 0.201 µM
O=S(=O)(O)CNc1ccccc1 [SODIUM PHENYLAMINOMETHANESULFONATE] :: 8.9 µM
NS(=O)(=O)c1cccc(/N=N/c2ccc(NCS(=O)(=O)O)cc2)c1 :: 9.45 µM
NS(=O)(=O)c1ccc(/N=N/c2ccc(O)cc2)cc1 :: 12.4 µM
CN(C)c1ccc(/N=N/c2cccc(S(N)(=O)=O)c2)cc1 :: 9.36 µM

Report Ki for every entry below.
1. NS(=O)(=O)c1ccc(/N=N/c2ccc(NCS(=O)(=O)O)cc2)cc1
2. CN(C)c1ccc(/N=N/c2ccc(S(N)(=O)=O)cc2)cc1
3. Nc1ccc(/N=N/c2ccc(S(N)(=O)=O)cc2)cc1
4. NCc1ccc(S(N)(=O)=O)cc1 [MAFENIDE]
5. Nc1ccc(S(=O)(=O)NCCc2ccc(S(N)(=O)=O)cc2)cc1
6. NS(=O)(=O)c1cccc(/N=N/c2ccc(O)cc2)c1

Result:
1. 8.9 µM
2. 30.7 µM
3. 8.78 µM
4. 7.33 µM
5. 0.17 µM
6. 9.23 µM

----------
Observed Ki for Carbonic anhydrase 2 (Homo sapiens), reported per entry below.
Quote the value and follow it with the unit of measurement.

Examples with answers:
CNc1ccc(/N=N/c2ccc(S(N)(=O)=O)cc2)cc1 :: 93 nM
NS(=O)(=O)c1cccc(/N=N/c2ccc(O)cc2)c1 :: 106 nM

Moving on to another compound below.
Task: What value of Ki has been recorded for this entry: `CN(C)c1ccc(/N=N/c2ccc(S(N)(=O)=O)cc2)cc1`
Result: 638 nM

----------
assayed.system: UniProtKB P9WPJ7
Sequence (P9WPJ7 whole entry): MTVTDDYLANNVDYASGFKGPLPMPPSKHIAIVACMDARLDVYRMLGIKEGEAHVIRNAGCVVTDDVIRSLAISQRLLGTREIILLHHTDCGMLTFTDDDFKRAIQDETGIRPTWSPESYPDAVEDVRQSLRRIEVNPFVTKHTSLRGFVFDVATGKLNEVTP
property.measured: log10(Ki) (log10 of the value in µM)
Values reflect log10 of reported Ki (µM).

# batch: return log10(Ki) for each of the 5 compounds below
1. Nc1ccc(/N=N/c2cccc(S(N)(=O)=O)c2)cc1
2. CNc1ccc(/N=N/c2ccc(S(N)(=O)=O)cc2)cc1
3. NS(=O)(=O)c1ccc(/N=N/c2ccc(NCS(=O)(=O)O)cc2)cc1
4. CC(=O)Nc1cc2c(O)c(/N=N/c3ccc(S(N)(=O)=O)cc3)c(S(=O)(=O)O)cc2cc1S(=O)(=O)O
5. CN(C)c1ccc(/N=N/c2cccc(S(N)(=O)=O)c2)cc1

Result:
1. 0.85
2. 0.89
3. 0.83
4. -0.90
5. 0.88

Please give log10(Ki) for each item listed below.
1. NS(=O)(=O)c1cccc(/N=N/c2ccc(O)cc2)c1
2. CN(CS(=O)(=O)O)c1ccc(/N=N/c2ccc(S(N)(=O)=O)cc2)cc1
3. CN(C)c1ccc(/N=N/c2ccc(S(N)(=O)=O)cc2)cc1
4. CN(CS(=O)(=O)O)c1ccccc1
5. NS(=O)(=O)c1ccc(/N=N/c2ccc(O)cc2)cc1
6. CN(CS(=O)(=O)O)c1ccc(/N=N/c2cccc(S(N)(=O)=O)c2)cc1
7. NS(=O)(=O)c1cccc(/N=N/c2ccc(NCS(=O)(=O)O)cc2)c1

Result:
1: 0.95; 2: 0.94; 3: 0.84; 4: 0.90; 5: 0.97; 6: 1.80; 7: 0.88

Need log10(Ki) for each of these compounds.
1. Nc1ccc(/N=N/c2ccc(S(N)(=O)=O)cc2)cc1
2. O=S(=O)(O)CNc1ccccc1 [SODIUM PHENYLAMINOMETHANESULFONATE]

Result:
1: 0.86; 2: 0.94

----------
Give Ki for every item shown.
assayed.system: PROBABLE TRANSMEMBRANE CARBONIC ANHYDRASE (CARBONATE DEHYDRATASE) (CARBONIC DEHYDRATASE) (Mycobacterium tuberculosis)
One number for each entry, in µM.

CN(CS(=O)(=O)O)c1ccc(/N=N/c2ccc(S(N)(=O)=O)cc2)cc1 :: 9.03
CC(=O)Nc1cc2c(O)c(/N=N/c3ccc(S(N)(=O)=O)cc3)c(S(=O)(=O)O)cc2cc1S(=O)(=O)O :: 0.148
Nc1ccc(S(=O)(=O)NCc2ccc(S(N)(=O)=O)cc2)cc1 :: 2.21

Task: Could you tell me which Ki is on file for `CNc1ccc(/N=N/c2ccc(S(N)(=O)=O)cc2)cc1` ?
Result: 9.18

Reference for the values: ChEMBL document CHEMBL1155354
